Reference source: patent US12448423

Molecular target: T1, cynomolgus CD8 (captured on the Octet biosensor) (cynomolgus)
T1 construct: Construct not described; also called cyno CD8; cyno CD8a
T1 sequence (P30433 other isoform, or with tags, fused parts or gaps): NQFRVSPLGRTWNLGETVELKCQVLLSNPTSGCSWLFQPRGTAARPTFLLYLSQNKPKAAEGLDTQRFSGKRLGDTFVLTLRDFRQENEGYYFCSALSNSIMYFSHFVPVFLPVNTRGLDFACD
Experiment: Octet (BLI); cynomolgus CD8 captured, dipped into multiple concentrations of the one-arm mAb
parameter: koff (s⁻¹)
The answer is to be given in s⁻¹; state only the numeric part.

# input binder: XENP26232 (antibody, V domains shown, also called OKT8_H2.155_L1.103 one-arm mAb) VH: QVQLVQSGAEVKKPGASVKVSCKASGFNIKDTYIHWVRQAPGKGLEWMGRIDPDNGETLYASKFQGRVTITADTSINTAYMELSRLRSDDTAVYYCGRGYGYYYFDHWGQGTTVTVSS VL: AIKMTQSPSSLSASVGDRVTITCRTSRSISKYLAWYQEKPGKTNKLLIYSGSTLQSGIPSRFSGSGSGTDFTLTISSLQPEDFATYYCQQHNENPLTFGAGTKLEIK ; wanted: its koff
0.0114

Consider next the binder XENP26019 (antibody, V domains shown, also called OKT8_H2.152_L1.113 one-arm mAb) VH: QVQLVQSGAEVKKPGASVKVSCKASGFNIKDTYIHWVRQAPGKGLEWMGRIDPDNGETLYASKFQGRVTITADTSINTAYMELSRLRSDDTAVYYCGRGYGYYVFDHWGQGTTVTVSS VL: AIKMTQSPSSLSASVGDRVTITCRTSRSISIYLAWYQEKPGKTNKLLIYKGSTLQSGIPSRFSGSGSGTDFTLTISSLQPEDFATYYCQQANENPLTFGAGTKLEIK in the same way.
0.00962
